Target: Macaca fascicularis IL-36R extracellular domain expressed with a C-terminal myc-myc-hexahistidine tag (Macaca fascicularis)
Experiment: SPR Biacore T200, mAb captured by anti-hFc, 25C, PBS-T pH 7.4
ENDPOINT LABEL: koff (s⁻¹)
Dear colleague, please return just the value in s⁻¹, with no unit written.

Use these answered entries as a reference point.
BINDER: H4H14708P2 (antibody, human IgG4 S228P, kappa, V domains shown) VH: EVQLVESGGDLVQPGRSLRLSCAASGFTFDDYAMHWVRQAPGKGLEWVSVISWNSDVIAYSDSVKGRFTISRDNAKNSLYLQMNSLRTEDTALYYCTKGHKWSFFDYWGQGTLVTVSS VL: EIVLTQSPATLSLSPGERATLSCRASQSISSYLAWYQQKPGQAPRLLIFNVANRATDIPARFSGSGSGTDFTLTISSLEPEDFAVYYCQQRSNWPLTFGGGTKVEIKR
READING: 0.000752
//
BINDER: H4H14731P (antibody, human IgG4 S228P, kappa, V domains shown) VH: QLQLQESGPGLVKPSETLSLTCTVSGGSISSSNYYWGWIRQPPGKRLEWIGSIYYSGSTYYNPSLKTRVTISVDTSKNQFSLKLTSVTAADTAVYYCAREEAAALTHFDFWGQGTLVTVSS VL: DIQMTQSPSSLSASVGDRVTITCRASQSISNYLNWYQQKPGKAPKLLIFAASSLQSGVPSRFSGSGSGTDFTLTISSLQPEDFATYYCQHSHSSHPITFGQGTRLEIKR
READING: 0.00137
//
BINDER: H4H14700P2 (antibody, human IgG4 S228P, kappa, V domains shown) VH: EVQLVESGGGLVQPGRSLRLSCAASGFTFDDYAMHWVRQTPGKGLEWVSVISWNSDVIAYSDSVKGRFTISRDNAKNSLYLQMNSLGTEDTALYYCAKGHNWNFFDYWGQGTLVTVSS VL: EIVLTQSPATLSLSPGERATLSCRASQSVSSYLAWYQQKPGQAPRLLIYNVANRATDIPARFSGSGSGTDFTLTISGLEPEDFAVYFCQQRSNWPLTFGGGTKVEIKR
READING: 0.000821

Now, please, on to the next binder.
GET /value?item= H4H14709P (antibody, human IgG4 S228P, kappa, V domains shown) VH: EVQLVESGGGLVQPGGSLRLSCAASGFTFSDYAMSWVRQAPGKGLEWVSGISGNGGDTYYGDFVKGRFTISRDNSKNTLYLQMNSLRGEDTAAYFCVIDLDYWGQGTLVTVSS VL: DIQMTQSPSTLSASEGDRVTITCRASQSISSWLAWYQQKPGKAPRLLIYKASILGDGVPSRFSGSGSGTEFTLTISSLQPDDFATYYCHQYNSYLWTFGQGTKVEIKR &field=koff returns 0.000519

Source: patent US20200017592A1
